- Tested on: Bacillus subtilis ATCC 6633
- EXPERIMENT: MIC by serial dilution method on agar plate
- Type: cell-based
- MEASUREMENT CONDITIONS: 1 × 10^8 cells/ml
- Text: Chemotherapy, 22, 1126-1128 (1974)]. The microorganisms were used in a concentration of 1×10^8 cells/ml (O.D. 660 mμ, 0.07-0.16) and 1×10^6 cells/ml (100 folds dilution).
VALUE KIND: minimum inhibitory concentration (MIC)

>>> endpoint_result("O=C(O)c1cn(-c2ccc(F)cc2)c2cc(N3CCNCC3)c(F)cc2c1=O")
0.195
>>> endpoint_result("CN1CCN(c2cc3c(cc2F)c(=O)c(C(=O)O)cn3-c2ccc(F)cc2)CC1")
0.195
>>> endpoint_result("CN1CCN(c2cc3c(cc2F)c(=O)c(C(=O)O)cn3-c2ccc(O)cc2)CC1")
0.097

---

- Tested on: Escherichia coli NIHJ JC-2
- EXPERIMENT: MIC by serial dilution method on agar plate
- Format: cell-based
- MEASUREMENT CONDITIONS: 1 × 10^8 cells/ml
minimum inhibitory concentration (MIC) overview
VALUE KIND: minimum inhibitory concentration (MIC)

>>> endpoint_result("O=C(O)c1cn(-c2ccc(F)cc2)c2cc(N3CCNCC3)c(F)cc2c1=O")
0.097
>>> endpoint_result("CN1CCN(c2cc3c(cc2F)c(=O)c(C(=O)O)cn3-c2ccc(O)cc2)CC1")
0.097
>>> endpoint_result("CN1CCN(c2cc3c(cc2F)c(=O)c(C(=O)O)cn3-c2ccc(F)cc2)CC1")
0.195

---

- EXPERIMENT: Absorption by oral administration in monkey (plasma concentration, thin layer cup bio-assay);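 also: plasma concentration in γ/ml (µg/mL) rather than the printed ng/mL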
- Assay type: in vivo
- MEASUREMENT CONDITIONS: 10 mg/kg, Run 1, 4 hour, read-out: Amount of test compd. in plasma
- Procedure: The test compounds were dissolved in 0.1N hydrochloric acid or suspended in 0.5% sodium carboxymethyl cellulose solution. The solution or suspension was administered into stomach of monkey (two monkeys) with cathetel. […] The concentration of the test compound was measured by a thin layer cup method (a bio-assay), wherein Bacillus subtilis ATCC 6633 was used as a bacteria for determination. Based on a standard curve, the concentration of test compound in plasma was calculated.
VALUE KIND: concentration at 4 h (ng/mL)

>>> endpoint_result("CN1CCN(c2c(F)cc3c(=O)c(C(=O)O)cn(-c4ccc(O)cc4)c3c2F)CC1")
720

---

- System: Proteus inconstans IFO 12930
- EXPERIMENT: MIC by serial dilution method on agar plate
- Assay type: cell-based
- MEASUREMENT CONDITIONS: 1 × 10^8 cells/ml
VALUE KIND: minimum inhibitory concentration (MIC)

>>> endpoint_result("O=C(O)c1cn(-c2ccc(F)cc2)c2cc(N3CCNCC3)c(F)cc2c1=O")
0.78
>>> endpoint_result("CN1CCN(c2cc3c(cc2F)c(=O)c(C(=O)O)cn3-c2ccc(F)cc2)CC1")
3.12
>>> endpoint_result("CN1CCN(c2c(F)cc3c(=O)c(C(=O)O)cn(-c4ccc(O)cc4)c3c2F)CC1")
0.195
>>> endpoint_result("CN1CCN(c2cc3c(cc2F)c(=O)c(C(=O)O)cn3-c2ccc(O)cc2)CC1")
0.78
